Assay: Surface tension measurements by pendant drop method in water (cmc and surface properties)
Assay type: physicochemical
Conditions: water, pendant drop
Protocol: Surface Properties. Surface tensions were identified with the help of pendant drop method at 20° C. using Biolin Scientific Attension instrument. Water was used as a solvent for all surface tension experiments. The reported data points of all surface tension measurements are average equilibrium values. The critical micelle concentration (cmc) was measured from the intersection point of two lines in the plot of surface tension versus concentration. Surface Tension Measurements. […]
Measured Attribute: γcmc (surface tension at cmc) (mN m^−1)
Just the number please, in mN m^−1, no unit attached.

Check out these entries, answers already filled in.
CCCCCCCC/C=C\CCCCCCCC(=O)NCCC[N+](C)(C)CCCC[N+](C)(C)CCCNC(=O)CCCCCCC/C=C\CCCCCCCC.[Br-].[Br-]	32.92
CCCCCCCC/C=C\CCCCCCCC(=O)NCCC[N+](C)(C)CCCCCC[N+](C)(C)CCCNC(=O)CCCCCCC/C=C\CCCCCCCC.[Br-].[Br-]	30.34
CCCCCCCCCCCC(=O)NCCC[N+](C)(C)C/C=C/C[N+](C)(C)CCCNC(=O)CCCCCCCCCCC.[Br-].[Br-]	36.23

Continue with the next molecule.
Data request: Give γcmc (surface tension at cmc) for CCCCCCCCCCCC(=O)NCCC[N+](C)(C)C/C=C\C[N+](C)(C)CCCNC(=O)CCCCCCCCCCC.[Cl-].[Cl-]
Data returned: 38.12
